- Test system: MOLT-4 leukemia
- Experimental protocol: NCI-60 one-dose screen, 48 h (100 = growth as untreated, 0 = no growth, -100 = all killed)
- Conditions used: 10 µM unless noted
- Method: Growth inhibition of the MOLT-4 human tumor cell line is measured as a screen for anti-cancer activity. Cells are grown in 96 well plates and exposed to the test compound for 48 hours. Compounds are tested at a single concentration, which is 10^-5 M for most compounds. The reported endpoint is percent growth (GI% or GIPRCNT), where numbers from 0 - 100% represent growth inhibition, and numbers from -100% - 0 represent cell death. For example, a value of 40 represents 60% growth inhibition. […]
This is part of a sample that, as a whole, favours compounds with a hit. Of some 83,000 tested, about 20% had one in any assay.
Endpoint name: growth (%)
Only the number, expressed in %, is required.

Use the examples below as a reference point.
> print(dat)
                                   compound  result.number
1  O=C1NN(c2ccccc2)C(c2ccc3c(c2)OCO3)N2CCC[C@@H]12 (some centres undefined)            102
2  C=C(C)[C@@H]1CC[C@]2(C(=O)n3ccnc3)CC[C@]3(C)[C@H](CC[C@@H]4[C@@]5(C)CCCNC(C)(C)[C@@H]5CC[C@]43C)[C@@H]12          -15.9
3  CC(=O)c1ccc(NC(=O)CSc2nnc(-c3cc(-c4ccc(C)cc4)nc4ccccc34)o2)cc1           43.5

Shift focus to the following entry.
The measured growth associated with `CNC(=O)c1cc(Oc2ccc3c(c2)sc2nc(-c4ccc(NC(C)=O)cc4)cn23)ccn1` reads 72.7

###

Below is a list of entries, each paired with its recorded growth value.
- System: SK-OV-3 ovarian
- Experimental protocol: NCI-60 one-dose screen, 48 h (100 = growth as untreated, 0 = no growth, -100 = all killed)
- Conditions used: 10 µM unless noted
This is part of a sample that, as a whole, favours compounds with a hit. Of some 83,000 tested, about 20% had one in any assay. Calls of active or inactive are those of the source. How the source made its calls: active means growth percent below 10; inactive means the rest.

Use the examples below as a reference point.
Compound	Result
CC(C)(C)c1ccc2oc(=O)n(SC(Cl)(Cl)Cl)c2c1	102% (inactive)
CCOC(=O)c1c(C(F)(F)F)n([O-])c2ccc(Cl)cc2[n+]1=O	66.6% (inactive)
COc1cc(/C=C/C(=O)c2cccs2)ccc1OCc1ccc(Cl)nc1	105% (inactive)

The measured growth associated with `O=C(Nc1nccs1)c1noc2ccccc12` reads 92.2% (inactive)

The measured growth associated with `O=C1[C@@H](OS(=O)(=O)CC(F)(F)F)[C@H](c2ccc(F)cn2)N1c1cc2c3ccccc3ccc2c2ccccc12` reads 95.8% (inactive)

The measured growth associated with `CCOC(=O)CC[C@H](NC(=O)c1ccc(NC)c2ccccc12)C(=O)OCC` reads 92.8% (inactive)

The measured growth associated with `Cc1nccc2c3ccc(OCc4cn(-c5ccc(Br)cc5)nn4)cc3n(CC(C)C)c12` reads 43.4% (inactive)

The measured growth associated with CC1(C)Cc2c(Br)c(Br)c(Br)c(OCC(O)CN3CCOCC3)c2O1 (centres undefined) reads 110% (inactive)

###

- Tested on: RXF 393 renal
- Experimental protocol: NCI-60 one-dose screen, 48 h (100 = growth as untreated, 0 = no growth, -100 = all killed)
- Conditions used: 10 µM unless noted
This is part of a sample that, as a whole, favours compounds with a hit. Of some 83,000 tested, about 20% had one in any assay.
Param label: returns y when growth < 90%, returns n otherwise, including exact equality.

# example entries with known answers
> print(dat)
                                   compound  assayed.target  label.value
1  COc1cc(F)c(-c2nc3c(C)cccc3n2Cc2c(F)cccc2F)c(F)c1   RXF 393 renal            n
2  COc1ccc(NC(=O)c2ccc(Nc3ncnc4[nH]c(C)c(C)c34)cc2)cc1   RXF 393 renal            n
3        Cc1cccc(C)c1Nc1nnc(-c2ccc(F)cc2)o1   RXF 393 renal            n
4  NCCCn1c2c(c3cc(-c4ccn[nH]4)ccc3c1=O)C(=O)c1ccccc1-2   RXF 393 renal            y
5  CN1CCN(/C=C2\CC(C(=O)NCc3ccc(Cl)cc3Cl)NC2=O)CC1 (stereo not given)   RXF 393 renal            n

Q: Say whether its growth is strictly beneath 90%. Entry: `Cc1c(Br)cccc1NC(=O)c1sc2nc3c(cc2c1N)CN(Cc1ccccc1)CC3`
A: y

Q: Say whether its growth is strictly beneath 90%. Entry: `COc1ccc(NC(=O)Nc2ccc(Nc3nc(C)cc(Nc4ccc(C)cc4)n3)cc2)cc1`
A: y

Q: Say whether its growth is strictly beneath 90%. Entry: `COC(=O)[C@]1(C)CCC[C@]2(C)[C@H]3C[C@H]4C(C(C)C)=C[C@]3(CC[C@H]21)[C@@H]1C(=O)N(CCC#N)C(=O)[C@@H]14`
A: y

Q: Say whether its growth is strictly beneath 90%. Entry: `C[C@H](Oc1cc(-c2cnn(C3CCNCC3)c2)cnc1N)c1c(Cl)ccc(F)c1Cl`
A: y

Q: Say whether its growth is strictly beneath 90%. Entry: O=C1CC23OC4ON=C(Br)C4C2C(O)c2ccccc2N13 (stereo not given)
A: n

The reported measurements were obtained from PubChem BioAssay (NCI).
